molecular target: FGF14:Nav1.6 C-tail complex (Homo sapiens, UniProt Q92915+Q9UQD0); construct: polymerase chain reaction (PCR) amplification of the FGF14 open reading frame (nt 1–855); C-terminal fragment of Nav1.6 (amino acids 1763–1976) fused with CD4ΔC-tail (amino acids 1–395); expressed in transfected cells; test: Split-luciferase complementation assay (LCA) in Clone V double stable HEK293 cells; assay type: cell-based
Sequence (Q92915 1-252 isoform Q92915-2): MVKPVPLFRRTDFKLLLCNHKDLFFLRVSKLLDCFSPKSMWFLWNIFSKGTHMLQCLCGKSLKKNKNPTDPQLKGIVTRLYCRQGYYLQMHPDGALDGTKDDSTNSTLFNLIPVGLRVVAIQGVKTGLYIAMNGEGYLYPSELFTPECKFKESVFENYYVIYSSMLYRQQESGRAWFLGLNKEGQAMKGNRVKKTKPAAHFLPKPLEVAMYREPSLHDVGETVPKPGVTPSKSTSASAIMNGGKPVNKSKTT
Sequence (Q9UQD0 1763-1976 limits assumed): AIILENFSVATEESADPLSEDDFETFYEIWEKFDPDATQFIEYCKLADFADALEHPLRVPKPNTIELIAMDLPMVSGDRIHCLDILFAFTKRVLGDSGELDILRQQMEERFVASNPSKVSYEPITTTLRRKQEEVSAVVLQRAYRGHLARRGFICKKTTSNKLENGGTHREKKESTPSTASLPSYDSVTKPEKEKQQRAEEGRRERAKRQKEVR
experimental_readout: Split Luciferase Assay %Lum Avg (%)
Provide the reading as a plain figure in %.

Some compounds with known Split Luciferase Assay %Lum Avg results, for comparison:
> print(dat)
                      compound             experimental.readout  reading.unit  obs.value
1         O=NN(CCCl)C(=O)NCCCl  Split Luciferase Assay %Lum Avg             %     104.93
2  C1CN1c1nc(N2CC2)nc(N2CC2)n1  Split Luciferase Assay %Lum Avg             %     117.67
3       S=P(N1CC1)(N1CC1)N1CC1  Split Luciferase Assay %Lum Avg             %     115.28

### Prompt What does the data say about its Split Luciferase Assay %Lum Avg? Entry: OC[C@H]1O[C@@H](n2cnc3c2NC=NC[C@H]3O)C[C@@H]1O
### Response 140.36
